Origin of the recorded values: PubChem BioAssay AID328

Tested on: BDF1 mice, P388 leukemia ip, median survival T/C
Assay: NCI In Vivo Anticancer Drug Screen. Data for tumor model P388 Leukemia (intraperitoneal) in B6D2F1 (BDF1) mice
Conditions: endpoint: median survival time; dose: 50.0 mg/kg/injection; schedule: Q01DX009 (ip); vehicle: saline; higher = longer survival
Toxic doses and inconclusive results are not listed.
parameter: T/C

{"compound": "O=CNNC(=O)c1ccccn1", "tgt": "BDF1 mice, P388 leukemia ip, median survival T/C", "parameter": "T/C", "endpoint-value": "100 % of control"}
{"compound": "CC(=N\\[O-])/C(C)=N/O.CC(=N\\[O-])/C(C)=N/O.CCCN.[Cl-].[Cl-].[Rh+3]", "tgt": "BDF1 mice, P388 leukemia ip, median survival T/C", "parameter": "T/C", "endpoint-value": "89 % of control"}
{"compound": "CC(=O)NC(CC(=O)O)C(=O)O (stereo not drawn)", "tgt": "BDF1 mice, P388 leukemia ip, median survival T/C", "parameter": "T/C", "endpoint-value": "95 % of control"}
{"compound": "CC[N+](CC)(CC)CC[N+](CC)(CC)CC", "tgt": "BDF1 mice, P388 leukemia ip, median survival T/C", "parameter": "T/C", "endpoint-value": "95 % of control"}
{"compound": "CC1(C)N=C(N)N=C(N)N1c1ccc2ccccc2c1", "tgt": "BDF1 mice, P388 leukemia ip, median survival T/C", "parameter": "T/C", "endpoint-value": "160 % of control"}
{"compound": "COc1cccc2c1C(=O)c1c(O)c3c(c(O)c1C2=O)C[C@@](O)(C(C)=O)C[C@@H]3OC1CC(NC(C)=O)C(O)C(C)O1 (stereo partly drawn)", "tgt": "BDF1 mice, P388 leukemia ip, median survival T/C", "parameter": "T/C", "endpoint-value": "227 % of control"}
{"compound": "CC(C)=NNC(=O)c1ccccc1", "tgt": "BDF1 mice, P388 leukemia ip, median survival T/C", "parameter": "T/C", "endpoint-value": "109 % of control"}
{"compound": "O=C(O)CCCC1CCC(=O)CC1", "tgt": "BDF1 mice, P388 leukemia ip, median survival T/C", "parameter": "T/C", "endpoint-value": "90 % of control"}
